Outcome Measure: melting point

// below: answered molecules
- Molecule: "C=C1C(=O)c2ccccc2OC1c1ccc(N(C)C)cc1 (configuration not stated)"
  melting point: "110 to 112 °C"
- Molecule: "CCOC(=O)C(C)(C#N)c1cccc(S(=O)(=O)c2ccccc2Cl)c1OC (configuration not stated)"
  melting point: "178 to 179 °C"
- Molecule: "Cc1cc(C)c(C2C(=O)N(N(C)C)C3(CCN(N(C)C)CC3)C2=O)c(C)c1 (configuration not stated)"
  melting point: "80 to 85 °C"
- Molecule: "O=C(CCCCCN1CCN(c2cccc(C(F)(F)F)c2)CC1)N1Cc2ccc(C3=NCCO3)cc2C1"
  melting point: "129 °C"
- Molecule: "C=CCN1CCCN(c2cc(Cl)ccc2C)C1=S"
  melting point: "71 to 72 °C"
- Molecule: "CC(C)Oc1ccc(CCN2CCC3(CC2)CNC(=O)CO3)cc1"
  melting point: "135 to 137 °C"

Next molecule, melting point to be filled in.
Entry Nc1ncc2c(n1)-c1sc(N)nc1CC2 , melting point reported as 293 to 300 °C
